Target: Recombinant human integrin αvβ1 (Homo sapiens, UniProt P05556+P06756)
Sequence (P06756 31-992 limits assumed): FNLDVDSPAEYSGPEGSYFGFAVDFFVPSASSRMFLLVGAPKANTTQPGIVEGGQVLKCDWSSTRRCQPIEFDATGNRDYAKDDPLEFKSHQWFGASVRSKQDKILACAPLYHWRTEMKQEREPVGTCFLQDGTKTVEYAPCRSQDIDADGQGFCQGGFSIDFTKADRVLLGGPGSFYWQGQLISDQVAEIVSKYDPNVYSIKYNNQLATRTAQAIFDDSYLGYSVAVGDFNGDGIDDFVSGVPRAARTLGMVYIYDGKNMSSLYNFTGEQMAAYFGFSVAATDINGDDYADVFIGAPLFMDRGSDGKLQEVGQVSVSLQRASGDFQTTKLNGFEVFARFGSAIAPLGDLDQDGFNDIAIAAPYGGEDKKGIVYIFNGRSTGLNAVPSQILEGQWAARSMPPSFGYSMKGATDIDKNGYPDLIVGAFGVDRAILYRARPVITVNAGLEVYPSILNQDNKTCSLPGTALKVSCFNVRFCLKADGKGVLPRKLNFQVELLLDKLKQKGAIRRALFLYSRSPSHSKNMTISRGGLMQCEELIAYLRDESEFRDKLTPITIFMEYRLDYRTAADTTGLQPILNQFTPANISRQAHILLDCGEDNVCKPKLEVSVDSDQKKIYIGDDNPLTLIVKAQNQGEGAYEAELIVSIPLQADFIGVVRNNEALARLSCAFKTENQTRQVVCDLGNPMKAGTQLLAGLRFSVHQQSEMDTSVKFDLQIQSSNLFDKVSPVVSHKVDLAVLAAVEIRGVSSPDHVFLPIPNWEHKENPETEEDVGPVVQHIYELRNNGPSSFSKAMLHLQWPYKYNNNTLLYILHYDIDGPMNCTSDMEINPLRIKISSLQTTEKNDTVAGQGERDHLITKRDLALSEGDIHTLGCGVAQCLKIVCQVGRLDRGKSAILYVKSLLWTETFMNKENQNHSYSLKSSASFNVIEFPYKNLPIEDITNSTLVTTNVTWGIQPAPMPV
Sequence (P05556 21-728 limits assumed): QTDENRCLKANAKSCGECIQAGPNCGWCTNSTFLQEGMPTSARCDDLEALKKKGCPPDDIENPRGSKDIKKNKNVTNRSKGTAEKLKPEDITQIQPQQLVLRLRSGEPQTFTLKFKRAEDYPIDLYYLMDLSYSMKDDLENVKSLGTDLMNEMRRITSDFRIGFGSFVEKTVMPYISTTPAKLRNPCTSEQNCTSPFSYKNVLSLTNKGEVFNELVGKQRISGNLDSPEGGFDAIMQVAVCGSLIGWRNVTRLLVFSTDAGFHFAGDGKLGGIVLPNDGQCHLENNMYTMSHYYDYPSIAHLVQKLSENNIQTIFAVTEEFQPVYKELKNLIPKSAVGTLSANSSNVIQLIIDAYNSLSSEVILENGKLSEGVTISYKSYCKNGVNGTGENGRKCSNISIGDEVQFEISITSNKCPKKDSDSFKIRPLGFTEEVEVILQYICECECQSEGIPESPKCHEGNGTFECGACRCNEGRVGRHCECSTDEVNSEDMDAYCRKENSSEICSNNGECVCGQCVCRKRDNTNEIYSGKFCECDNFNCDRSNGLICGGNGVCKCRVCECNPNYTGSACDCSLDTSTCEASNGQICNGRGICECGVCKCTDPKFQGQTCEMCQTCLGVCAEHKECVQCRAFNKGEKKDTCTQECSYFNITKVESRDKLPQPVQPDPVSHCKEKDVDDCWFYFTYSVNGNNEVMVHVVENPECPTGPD
Assay: Solid Phase Receptor Assay (SPRA) for αVβ1 function
Details: plate-bound human fibronectin
Structures can show the parent of a compound that is named as a salt.
Listed next: entries and their corresponding IC50.

- COMPOUND: "Cn1nc(CC(CC(=O)O)c2cc(C(C)(C)C)cc(C3(C(F)F)CC3)c2)cc1OCCc1ccc2c(n1)NCCC2 (centres unmarked)"
  ASSAY TARGET: "Recombinant human integrin αvβ1 (Homo sapiens, UniProt P05556+P06756)"
  IC50: "5 nM"
- COMPOUND: "COCC1(c2ccc(OC)c(C(CC(=O)O)Cc3cc(OCCc4ccc5c(n4)NCCC5)n(C)n3)c2)CCOCC1 (centres unmarked)"
  ASSAY TARGET: "Recombinant human integrin αvβ1 (Homo sapiens, UniProt P05556+P06756)"
  IC50: "2.2 nM"
- COMPOUND: "CC(C)(C)c1ccc(Br)c(C(CC(=O)O)Cc2csc(CCCc3ccc4c(n3)NCCC4)n2)c1 (centres unmarked)"
  ASSAY TARGET: "Recombinant human integrin αvβ1 (Homo sapiens, UniProt P05556+P06756)"
  IC50: "4 nM"
- COMPOUND: "CC(C)(C)c1cc(C(CC(=O)O)Cc2cc(OCCc3ccc4c(n3)NCCC4)n(CC(F)(F)F)n2)cc(C(C)(C)C)c1 (centres unmarked) [Example 40, trifluoroacetate]"
  ASSAY TARGET: "Recombinant human integrin αvβ1 (Homo sapiens, UniProt P05556+P06756)"
  IC50: "3 nM"
- COMPOUND: "Cn1nc(CC(CC(=O)O)c2cc3c(c(C(C)(C)C)c2)OCCO3)cc1OCCc1ccc2c(n1)NCCC2 (centres unmarked)"
  ASSAY TARGET: "Recombinant human integrin αvβ1 (Homo sapiens, UniProt P05556+P06756)"
  IC50: "5 nM"
- COMPOUND: "COc1cc(C(CC(=O)O)Cc2cc(OCCc3ccc4c(n3)NCCC4)n(C)n2)cc(C23CC4CC(CC(C4)C2)C3)c1OC (centres unmarked)"
  ASSAY TARGET: "Recombinant human integrin αvβ1 (Homo sapiens, UniProt P05556+P06756)"
  IC50: "9 nM"
- COMPOUND: "Cn1nc(CC(CC(=O)O)c2cc(C(C)(C)C)cc(C(C)(C)CO)c2)cc1OCCc1ccc2c(n1)NCCC2 (centres unmarked)"
  ASSAY TARGET: "Recombinant human integrin αvβ1 (Homo sapiens, UniProt P05556+P06756)"
  IC50: "3 nM"
- COMPOUND: "COc1ccc(C2=CCOCC2)cc1[C@@H](CC(=O)O)Cc1csc(CCCc2ccc3c(n2)NCCC3)n1 [Example 37B, trifluoroacetate]"
  ASSAY TARGET: "Recombinant human integrin αvβ1 (Homo sapiens, UniProt P05556+P06756)"
  IC50: "190 nM"
- COMPOUND: "COc1ccc(S(F)(F)(F)(F)F)cc1C(CC(=O)O)Cc1cc(OCCc2ccc3c(n2)NCCC3)n(C)n1 (centres unmarked)"
  ASSAY TARGET: "Recombinant human integrin αvβ1 (Homo sapiens, UniProt P05556+P06756)"
  IC50: "9 nM"
- COMPOUND: "COc1ccc(C(C)(C)O)cc1C(CC(=O)O)Cc1cc(OCCc2ccc3c(n2)NCCC3)n(C)n1 (centres unmarked)"
  ASSAY TARGET: "Recombinant human integrin αvβ1 (Homo sapiens, UniProt P05556+P06756)"
  IC50: "3 nM"
- COMPOUND: "COc1c(C(C)C)cc(C(CC(=O)O)Cc2cc(OCCc3ccc4c(n3)NCCC4)n(C)n2)cc1C(C)C (centres unmarked)"
  ASSAY TARGET: "Recombinant human integrin αvβ1 (Homo sapiens, UniProt P05556+P06756)"
  IC50: "6 nM"
- COMPOUND: "Cn1nc(CC(CC(=O)O)c2cc(C(C)(C)C)cc(C(C)(C)C#N)c2)cc1OCCc1ccc2c(n1)NCCC2 (centres unmarked)"
  ASSAY TARGET: "Recombinant human integrin αvβ1 (Homo sapiens, UniProt P05556+P06756)"
  IC50: "2 nM"
- COMPOUND: "Cn1nc(CC(CC(=O)O)c2cc(C(C)(C)C#N)cc(C(C)(C)C#N)c2)cc1OCCc1ccc2c(n1)NCCC2 (centres unmarked) [Example 41, trifluoroacetate]"
  ASSAY TARGET: "Recombinant human integrin αvβ1 (Homo sapiens, UniProt P05556+P06756)"
  IC50: "1 nM"
- COMPOUND: "CC(C)c1cc(C(C)C)cc(C(CC(=O)O)Cc2cc(OCCc3ccc4c(n3)NCCC4)n(C)n2)c1 (centres unmarked)"
  ASSAY TARGET: "Recombinant human integrin αvβ1 (Homo sapiens, UniProt P05556+P06756)"
  IC50: "7 nM"

====

Measured pIC50 of individual entries
Target: Recombinant human integrin αVβ3 (Homo sapiens, UniProt P05106+P06756)
Sequence (P05106 27-718 limits assumed, one chain of several): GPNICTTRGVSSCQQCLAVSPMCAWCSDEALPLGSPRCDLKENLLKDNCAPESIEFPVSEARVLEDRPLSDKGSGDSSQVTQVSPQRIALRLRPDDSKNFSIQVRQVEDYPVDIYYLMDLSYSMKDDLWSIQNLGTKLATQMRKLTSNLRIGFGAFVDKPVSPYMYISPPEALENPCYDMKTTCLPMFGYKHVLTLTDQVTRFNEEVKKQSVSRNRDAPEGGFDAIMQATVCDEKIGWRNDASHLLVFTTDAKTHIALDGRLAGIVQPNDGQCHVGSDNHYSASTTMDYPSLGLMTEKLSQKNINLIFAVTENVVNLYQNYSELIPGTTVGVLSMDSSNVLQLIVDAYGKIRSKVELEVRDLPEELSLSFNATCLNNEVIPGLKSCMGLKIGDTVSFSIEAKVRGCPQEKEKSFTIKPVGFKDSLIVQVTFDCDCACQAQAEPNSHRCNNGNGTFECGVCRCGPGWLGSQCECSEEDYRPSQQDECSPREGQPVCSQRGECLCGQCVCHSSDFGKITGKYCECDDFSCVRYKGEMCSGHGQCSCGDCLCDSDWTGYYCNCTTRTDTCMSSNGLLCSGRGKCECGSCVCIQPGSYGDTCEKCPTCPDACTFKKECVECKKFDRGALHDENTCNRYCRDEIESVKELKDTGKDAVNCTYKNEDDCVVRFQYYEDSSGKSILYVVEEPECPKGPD
Test: Solid Phase Receptor Assay for αVβ3 function
Conditions: plate-bound human vitronectin; read-out: αVβ3 SPRA IC50
pIC50: −log10 of the molar value.

- MOLECULE: "COc1ccc(C2COC2)cc1C(CC(=O)O)Cc1cc(OCCc2ccc3c(n2)NCCC3)n(C)n1 (stereo not drawn)"
  pIC50: 7.59
- MOLECULE: "CC(C)(C)c1ccc(Br)c(C(CC(=O)O)Cc2csc(CCCc3ccc4c(n3)NCCC4)n2)c1 (stereo not drawn)"
  pIC50: 5.60
- MOLECULE: "Cn1nc(C[C@@H](CC(=O)O)c2cc3c(c(C(C)(C)C)c2)OCO3)cc1OCCc1ccc2c(n1)NCCC2"
  pIC50: 8.74
- MOLECULE: "Cc1cc(C)n(-c2cccc(C(CC(=O)O)Cc3csc(CCc4ccc5c(n4)NCCC5)n3)c2)n1 (stereo not drawn)"
  pIC50: 8.05
- MOLECULE: "COc1c(C(C)C)cc(C(CC(=O)O)Cc2cc(OCCc3ccc4c(n3)NCCC4)n(C)n2)cc1C(C)C (stereo not drawn)"
  pIC50: 7.43
- MOLECULE: "COc1ccc(C(C)(C)O)cc1C(CC(=O)O)Cc1cc(OCCc2ccc3c(n2)NCCC3)n(C)n1 (stereo not drawn)"
  pIC50: 8.30
- MOLECULE: "Cn1nc(CC(CC(=O)O)c2cc(C(C)(C)C)ccc2C#N)cc1OCCc1ccc2c(n1)NCCC2 (stereo not drawn)"
  pIC50: 7.25
- MOLECULE: "Cn1nc(CC(CC(=O)O)c2cc(Cl)cc(C(C)(C)C#N)c2)cc1OCCc1ccc2c(n1)NCCC2 (stereo not drawn)"
  pIC50: 8.52
- MOLECULE: "COc1ccc(C2CCOCC2)cc1C(CC(=O)O)Cc1csc(CCCc2ccc3c(n2)NCCC3)n1 (stereo not drawn)"
  pIC50: 6.28
- MOLECULE: "Cn1nc(CC(CC(=O)O)c2cc3c(c(C(C)(C)C)c2)OCCO3)cc1OCCc1ccc2c(n1)NCCC2 (stereo not drawn)"
  pIC50: 8.15
- MOLECULE: "COc1ccc(C(CC(=O)O)Cc2cc(OCCc3ccc4c(n3)NCCC4)n(C)n2)cc1F (stereo not drawn)"
  pIC50: 8.64
- MOLECULE: "COc1ccc(C2=CCOCC2)cc1C(CC(=O)O)Cc1csc(CCCc2ccc3c(n2)NCCC3)n1 (stereo not drawn)"
  pIC50: 6.64
- MOLECULE: "Cn1nc(CC(CC(=O)O)c2cc(C(C)(C)C)cc(C3(C(F)F)CC3)c2)cc1OCCc1ccc2c(n1)NCCC2 (stereo not drawn)"
  pIC50: 6.92
- MOLECULE: "CC(C)(C)c1cc(C(CC(=O)O)Cc2csc(CCCc3ccc4c(n3)NCCC4)n2)cc(C(C)(C)C(F)(F)F)c1 (stereo not drawn)"
  pIC50: 5.59
- MOLECULE: "COc1ccc(C(F)(F)F)cc1C(CC(=O)O)Cc1csc(CCCc2ccc3c(n2)NCCC3)n1 (stereo not drawn)"
  pIC50: 7.11

====

Biological target: Recombinant human integrin αVβ5 (Homo sapiens, UniProt P06756+P18084)
Sequence (P06756 31-992 limits assumed): as the sequence (P06756 31-992 limits assumed) above
Sequence (P18084 24-719 limits assumed): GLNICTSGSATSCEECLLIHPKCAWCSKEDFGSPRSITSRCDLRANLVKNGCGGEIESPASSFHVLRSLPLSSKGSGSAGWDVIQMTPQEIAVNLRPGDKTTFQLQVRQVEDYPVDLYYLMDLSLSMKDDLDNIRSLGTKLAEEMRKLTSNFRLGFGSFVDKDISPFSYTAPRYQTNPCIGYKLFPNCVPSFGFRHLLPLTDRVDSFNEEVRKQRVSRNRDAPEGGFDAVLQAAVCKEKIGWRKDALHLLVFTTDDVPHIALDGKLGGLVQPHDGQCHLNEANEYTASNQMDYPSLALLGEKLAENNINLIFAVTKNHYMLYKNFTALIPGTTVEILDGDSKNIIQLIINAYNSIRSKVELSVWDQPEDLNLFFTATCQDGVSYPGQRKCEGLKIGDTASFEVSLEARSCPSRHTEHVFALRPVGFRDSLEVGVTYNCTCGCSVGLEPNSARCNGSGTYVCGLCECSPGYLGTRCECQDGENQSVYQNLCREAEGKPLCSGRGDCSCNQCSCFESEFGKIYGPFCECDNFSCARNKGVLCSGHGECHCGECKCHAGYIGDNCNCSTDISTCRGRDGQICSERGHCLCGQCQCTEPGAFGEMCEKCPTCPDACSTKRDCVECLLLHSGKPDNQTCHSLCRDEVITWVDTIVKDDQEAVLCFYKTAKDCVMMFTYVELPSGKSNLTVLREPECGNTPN
Assay: Solid Phase Receptor Assay (SPRA) for αVβ5 function
Conditions: plate-bound human vitronectin
Where a name gives a salt, the structure may show the parent alone.
VALUE TYPE: log10 IC50 (log10 of the value in nM)

- COMPOUND: "COc1ccc(C2(C(F)F)CC2)cc1C(CC(=O)O)Cc1csc(CCCc2ccc3c(n2)NCCC3)n1 (stereo not shown)"
  log10 IC50: 2.18
- COMPOUND: "CC(C)(C)c1cc(C(CC(=O)O)Cc2cc(OCCc3ccc4c(n3)NCCC4)n(CC(F)(F)F)n2)cc(C(C)(C)C)c1 (stereo not shown) [Example 40, trifluoroacetate]"
  log10 IC50: 2.26
- COMPOUND: "Cn1nc(CC(CC(=O)O)c2cc(C(C)(C)C)cc(C(C)(C)CO)c2)cc1OCCc1ccc2c(n1)NCCC2 (stereo not shown)"
  log10 IC50: 1.43
- COMPOUND: "COc1ccc(C(F)(F)F)cc1C(CC(=O)O)Cc1csc(CCCc2ccc3c(n2)NCCC3)n1 (stereo not shown)"
  log10 IC50: 1.84
- COMPOUND: "COc1cc(C(CC(=O)O)Cc2cc(OCCc3ccc4c(n3)NCCC4)n(C)n2)cc(C23CC4CC(CC(C4)C2)C3)c1OC (stereo not shown)"
  log10 IC50: 0.95
- COMPOUND: "COc1c(C(C)C)cc(C(CC(=O)O)Cc2cc(OCCc3ccc4c(n3)NCCC4)n(C)n2)cc1C(C)C (stereo not shown)"
  log10 IC50: 1.89
- COMPOUND: "COc1cc(C(CC(=O)O)Cc2cc(OCCc3ccc4c(n3)NCCC4)n(C)n2)cc(C23CC4CC(CC(C4)C2)C3)c1OCc1ccccc1 (stereo not shown)"
  log10 IC50: 2.15
